src = ChEMBL document CHEMBL3507680

- experimental protocol: Human HepG2 cell viability assay in 384 well format
- Format: toxicity, cell-based
- Design: dose 125 nL, time 70.5 hour; concentration not given beside the values
- experimental setup: HepG2 cells, read-out: Inhibition
quantity measured: cytotoxicity at 70.5 h (%)
State just the number; it will be interpreted in %.

The cases that follow already have their cytotoxicity at 70.5 h on record.
For the molecule CCc1cnc(N2C[C@@H]3[C@@H](C(=O)NCC(C)C)CCS(=O)(=O)[C@@H]3C2)nc1 , what cytotoxicity at 70.5 h is on record?
-5.83

For the molecule NC(=O)c1cc2c(nc1N1C[C@H]3OC(=O)N(C4CCCC4)[C@H]3C1)CCC2 , what cytotoxicity at 70.5 h is on record?
-10.7

For the molecule CC(=O)Nc1nc(CN2CCCCC2Cn2cncn2)cs1 (configuration not stated) , what cytotoxicity at 70.5 h is on record?
0.302

# context switch: different molecule, same cytotoxicity at 70.5 h
For the molecule N#Cc1cccnc1N1CCCC(CO)(Cc2cccc(Cl)c2)C1 (configuration not stated) , what cytotoxicity at 70.5 h is on record?
2.5

====

- experimental protocol: Human HepG2 cell viability assay in 384 well format
- Type: toxicity, cell-based
- Parameters: dose 125 nL, time 70.5 hour; concentration not given beside the values
- experimental setup: HepG2 cells, read-out: Inhibition
quantity measured: cytotoxicity at 70.5 h (%)
State just the number; it will be interpreted in %.

The cases that follow already have their cytotoxicity at 70.5 h on record.
For the compound COc1ccc(CN2CC[C@H](c3nc4cccc(C(N)=O)c4[nH]3)C2)cc1 , what cytotoxicity at 70.5 h is on record?
3.39

For the compound O=C(c1ccc2[nH]nnc2c1)N1CCCC(n2cccn2)C1 (centres undefined) , what cytotoxicity at 70.5 h is on record?
-5.26

For the compound Cc1ccc2c(c1)C(NCc1ccccn1)CC2 (centres undefined) , what cytotoxicity at 70.5 h is on record?
-12.6

Further cases:
For the compound COCc1nn(Cc2ccc(Cl)s2)c(=O)o1 , what cytotoxicity at 70.5 h is on record?
-13.7

For the compound Cc1cc(CNc2ccccc2Cl)no1 , what cytotoxicity at 70.5 h is on record?
-13.4

For the compound Cc1ccc(C(=O)O)c(N2CC(C)(C)[C@@](C)(O)C2)n1 , what cytotoxicity at 70.5 h is on record?
-10.6

For the compound CS(=O)(=O)N1CCCC(n2nnn(-c3ccccc3)c2=O)C1 (centres undefined) , what cytotoxicity at 70.5 h is on record?
-8.01

For the compound Cc1ccc(C)c(OC2CCN(C(=O)c3ccc(C)[nH]c3=O)CC2)c1 , what cytotoxicity at 70.5 h is on record?
-11

For the compound O=c1[nH]cc(N2CCCCC2)c(=O)[nH]1 , what cytotoxicity at 70.5 h is on record?
-3.72

For the compound Cc1cc2[nH]c(CN3CCOC(c4ccc(Cl)cc4)C3)cc(=O)n2n1 (centres undefined) , what cytotoxicity at 70.5 h is on record?
-2.79

For the compound Cc1cnc(CCN(C)C(=O)c2ccc(O)nc2C)s1 , what cytotoxicity at 70.5 h is on record?
-2.62

For the compound O=S(=O)(CCCn1cncn1)Cc1ccc(F)cc1Cl , what cytotoxicity at 70.5 h is on record?
-8.31

For the compound Cc1cc(NC2CCc3ncnn3C2)n2ncnc2n1 (centres undefined) , what cytotoxicity at 70.5 h is on record?
-106

For the compound CCc1nc(C(=O)N2CCCC2)nn1-c1ccccc1Cl , what cytotoxicity at 70.5 h is on record?
10.2

For the compound CN1CC[C@]2(CN(C(=O)c3ccc[nH]3)C[C@H]2c2ccccc2)C1=O , what cytotoxicity at 70.5 h is on record?
-3.54

For the compound CN1Cc2nnc(C3CCOCC3)n2C(Cc2c[nH]cn2)C1 (centres undefined) , what cytotoxicity at 70.5 h is on record?
-1.52

For the compound O=C(Nc1cnn(CCN2CCOCC2)c1)c1ccccc1Cl , what cytotoxicity at 70.5 h is on record?
0.235

For the compound O=C(Nc1cccnc1-n1cc(Cl)cn1)C1CC1 , what cytotoxicity at 70.5 h is on record?
-27.5

For the compound CCCS(=O)(=O)N1C[C@H]2C[C@H](C(=O)N3CCOCC3)[C@@H](C1)O2 , what cytotoxicity at 70.5 h is on record?
-4.21

For the compound Cc1cc(CN2CCCC2)cc(Oc2ccc(C(F)(F)F)cn2)c1 , what cytotoxicity at 70.5 h is on record?
-0.531

For the compound CC(C)c1noc(CN2CCN(C(=O)c3cc(Cl)ccc3F)CC2)n1 , what cytotoxicity at 70.5 h is on record?
-8.7

For the compound Cn1ccc(C(=O)NC2CCC23CCN(C(=O)c2ccnnc2)CC3)c1 (centres undefined) , what cytotoxicity at 70.5 h is on record?
27.1

For the compound Cc1cc(C(=O)NCCN2CCCC(C)C2)nn1C(C)(C)C (centres undefined) , what cytotoxicity at 70.5 h is on record?
-22.7

For the compound Cn1cnc2c1CCN(Cc1c(Cl)ccc3cccnc13)C2 , what cytotoxicity at 70.5 h is on record?
0.125

====

- experimental protocol: Human HepG2 cell viability assay in 384 well format
- Type: toxicity, cell-based
- Design: dose 125 nL, time 70.5 hour; concentration not given beside the values
- experimental setup: HepG2 cells, read-out: Inhibition
quantity measured: cytotoxicity at 70.5 h
Could you give the number and then its unit, please?

For the molecule CCN1CCCC(C)(C(=O)NCc2nnnn2-c2ccccc2)C1 (centres undefined) , what cytotoxicity at 70.5 h is on record?
-5.49%

For the molecule CN(C)C(=O)Cn1c2c(ccc1=O)CC(NCc1ccoc1)CC2 (centres undefined) , what cytotoxicity at 70.5 h is on record?
1.44%

For the molecule CC(C)(CNCc1ccc(OCc2cscn2)cc1)C(N)=O , what cytotoxicity at 70.5 h is on record?
2.2%

For the molecule Cc1nn(C)c(Cl)c1C1CCCN1c1ncnc2c1CCC2 (centres undefined) , what cytotoxicity at 70.5 h is on record?
18%

For the molecule CCCSc1ncc(CN2CCN(C)C(=O)C2C)cn1 (centres undefined) , what cytotoxicity at 70.5 h is on record?
20.3%

Further cases:
For the molecule Cc1ccccc1N1CC2(CCN(c3nncs3)C2)CC1=O (centres undefined) , what cytotoxicity at 70.5 h is on record?
-1.13%

For the molecule O=C(NCCNS(=O)(=O)C1CCCCC1)c1ccccc1 , what cytotoxicity at 70.5 h is on record?
-10.7%

For the molecule CCC(CC)CN(C)Cc1nc(-c2ccccc2NS(C)(=O)=O)oc1C , what cytotoxicity at 70.5 h is on record?
-5.33%

====

Each record here notes measured cytotoxicity at 70.5 h.
- experimental protocol: Human HepG2 cell viability assay in 384 well format
- Assay type: toxicity, cell-based
- Parameters: dose 125 nL, time 70.5 hour; concentration not given beside the values
- experimental setup: HepG2 cells, read-out: Inhibition
Could you give the number and then its unit, please?

For the compound Cc1ccc(C(=O)NCCS(=O)(=O)N2CCSCC2)n1C , what cytotoxicity at 70.5 h is on record?
-2.8%

====

Each record here notes measured cytotoxicity at 70.5 h.
- experimental protocol: Human HepG2 cell viability assay in 384 well format
- Format: toxicity, cell-based
- Design: dose 125 nL, time 70.5 hour; concentration not given beside the values
- experimental setup: HepG2 cells, read-out: Inhibition
State just the number; it will be interpreted in %.

The cases that follow already have their cytotoxicity at 70.5 h on record.
For the molecule O=C(CCS(=O)(=O)C1CCCC1)N1CCCC(n2ccnc2)C1 (stereo not drawn) , what cytotoxicity at 70.5 h is on record?
6.79

For the molecule COc1cccc([C@@H](C)n2ccnc2-c2cc3n(n2)CCNC3)c1 , what cytotoxicity at 70.5 h is on record?
-10.2

For the molecule COCCN(Cc1ccco1)Cc1nc(-c2ccc(C)c(F)c2)no1 , what cytotoxicity at 70.5 h is on record?
17.2

For the molecule COc1ccc(CN2CCC3(CC2)CCN(CC(=O)N(C)C)C3=O)cc1 , what cytotoxicity at 70.5 h is on record?
-16.7

For the molecule c1csc(N2CCN(Cc3cc4n(n3)CCNC4)CC2)n1 , what cytotoxicity at 70.5 h is on record?
1.93

Further cases:
For the molecule Cc1nn(C)c(C)c1C1CCCN1C(=O)c1cnc2onc(C)c2c1 (stereo not drawn) , what cytotoxicity at 70.5 h is on record?
-7.3

For the molecule CN(C)c1ccc(CCCNC(=O)Nc2ccc(C#N)cc2)cc1 , what cytotoxicity at 70.5 h is on record?
1.4

For the molecule O=C(c1cc2c(Cl)cccc2[nH]1)N1CCN(CCc2ccccn2)CC1 , what cytotoxicity at 70.5 h is on record?
24.6

For the molecule CCO[C@H]1C[C@@H](O)C12CCN(C(=O)CCN1CCCC1=O)CC2 , what cytotoxicity at 70.5 h is on record?
-9.62

For the molecule O=C(NCC1CC1)C1=NOC2(CCN(S(=O)(=O)Cc3ccccc3)C2)C1 (stereo not drawn) , what cytotoxicity at 70.5 h is on record?
-5.14

For the molecule CC(C)Cc1noc(CN(C)c2ncccn2)n1 , what cytotoxicity at 70.5 h is on record?
-3.77

For the molecule CC(C)(C)NC(=O)C1CSCN1S(=O)(=O)c1ccccc1S(C)(=O)=O (stereo not drawn) , what cytotoxicity at 70.5 h is on record?
-1.89

For the molecule N#Cc1c(F)cccc1N1CCN(S(=O)(=O)c2cccs2)CC1 , what cytotoxicity at 70.5 h is on record?
8.47

For the molecule O=C(NCCCNCC1CNc2ccnn2C1)c1ccccc1 (stereo not drawn) , what cytotoxicity at 70.5 h is on record?
-12

For the molecule Cc1cnn(CC2CCCCN2C(=O)Cc2c(C)nn(C)c2C)c1 (stereo not drawn) , what cytotoxicity at 70.5 h is on record?
-3.41

For the molecule Cc1noc(C)c1-c1cccc(CC2CCN(C(=O)c3cscn3)C2)n1 (stereo not drawn) , what cytotoxicity at 70.5 h is on record?
-5.81

For the molecule COCCN1CCN(c2ccc(C)nn2)Cc2cccnc21 , what cytotoxicity at 70.5 h is on record?
-7.28

For the molecule Cn1c(C2CC2)nc2cc(NC(=O)C3CC=CC3)ccc21 , what cytotoxicity at 70.5 h is on record?
-5.03

For the molecule O=C(NCc1ccco1)N1CCCCC1c1nc(C2CC2)no1 (stereo not drawn) , what cytotoxicity at 70.5 h is on record?
-7.19
